Quick list: kcat per entry.
B1: glmS ribozyme (parent)
chain: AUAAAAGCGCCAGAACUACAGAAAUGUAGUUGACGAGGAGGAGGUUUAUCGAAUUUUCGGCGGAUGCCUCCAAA

Variants of: B1
Experiment: kcat; higher = faster cleavage; RNA array
Details: with glucosamine-6-phosphate
Fewer inactive variants are shown than the library holds.
Report the value in s⁻¹ with no unit label.

Challenge: kcat lookup needed for U55C C58G , thanks.
Response given: 0.000215

Challenge: kcat lookup needed for G37A A53C C71U , thanks.
Response given: 9.8e-05

Challenge: kcat lookup needed for C61G U69C , thanks.
Response given: 6.05e-05

Challenge: kcat lookup needed for U49G C67U , thanks.
Response given: 0.000381

Challenge: kcat lookup needed for U30A C71A , thanks.
Response given: 0.00089

Challenge: kcat lookup needed for C11A A14U , thanks.
Response given: 9.91e-05

Challenge: kcat lookup needed for A12C U65A , thanks.
Response given: 0.00216

Challenge: kcat lookup needed for A6C A12C , thanks.
Response given: 4.52e-05
